Numbers sourced from PubChem BioAssay (NCI).

Tested on: CAKI-1 renal
measurement_description: NCI-60 one-dose screen, 48 h
condition_parameters: 10 µM unless noted
Compounds without any hit were thinned out: in the full panel of roughly 83,000, 20% have a hit. Active and inactive are the calls of the source. How the source made its calls: active means growth percent below 10; inactive means the rest.
Outcome (select one): yes (active), no (inactive)

compound	classification
Cn1c(=O)c(C#N)c(-c2ccco2)n2c(S(=O)(=O)Cc3ccccc3)nnc12	no
CCC(Br)(CC)C(=O)c1ccc(OCC(=O)O)c(Cl)c1Cl	no

## Input Assay result, entry O=C1/C(=C\c2cn(CC(O)CN3CCCCC3)c3ccccc23)c2ccccc2N1c1c(Cl)cccc1Cl (stereo not drawn) — outcome?
## Output yes

## Input Assay result, entry C=C(C)[C@@H]1CC[C@]2(C(=O)OC)CC[C@]3(C)[C@H](CC[C@@H]4[C@@]5(C)CC/C(=N\OCCC(=NCCC#N)NOCCC#N)C(C)(C)[C@@H]5CC[C@]43C)[C@@H]12 — outcome?
## Output no

## Input Assay result, entry C[C@H]1[C@H](C)CC[C@]2(C(=O)N3CCN(C)CC3)CC[C@]3(C)C(=CC[C@@H]4[C@@]5(C)C/C(=C/c6ccco6)C(=O)C(C)(C)[C@@H]5CC[C@]43C)[C@H]12 — outcome?
## Output no

## Input Assay result, entry N#C/C(C(=O)c1ccccc1)=C1/C(=O)Nc2ccc(F)cc21 — outcome?
## Output no

## Input Assay result, entry CCN(CC)c1ccc(/C=C/c2ccc3cc(C)ccc3[n+]2CC)cc1 — outcome?
## Output no

## Input Assay result, entry Cc1cc(C)c(O)c(CNCCCCCCNCc2cc(C)cc(C)c2O)c1 — outcome?
## Output no

====

System: CCRF-CEM leukemia
measurement_description: NCI-60 one-dose screen, 48 h
condition_parameters: 10 µM unless noted
About 83,000 compounds went through this panel and 20% of them were active in at least one assay; those are over-represented in the sample as a whole. Active and inactive are the calls of the source. Rule for the calls: active = growth percent below 10; inactive = the rest.
Outcome (select one): active, inactive

Illustrative cases are given below, each with its answer.
compound	classification
CNc1cc(C(=O)O)nc(NC)n1	inactive
CC(C)OC(=O)Nc1cc(F)ccc1F	inactive
c1ccc(-c2nc(N3CCCNCC3)c3nc(-c4ccccc4)oc3n2)cc1	inactive
CCOC(=O)c1cc(C#N)n2ncc3ccccc3c12	inactive
COc1ccc(/C=C2\N=C(Nc3ccccc3)N(NC(=O)c3ccccn3)C2=O)cc1	inactive
C=C(C)[C@@H]1CC[C@]2(C(=O)N3CCN(C)CC3)CC[C@]3(C)[C@H](CC[C@@H]4[C@@]5(C)C/C(=C/c6ccncc6)[C@H](O)C(C)(C)[C@@H]5CC[C@]43C)[C@@H]12	active
CCc1ccc(C2=C/C(=C/c3ccccc3)C(=O)N2CCc2ccc(S(N)(=O)=O)cc2)cc1	inactive
CC(=O)Nc1ccc(C=Nc2ccc3ccccc3c2)cc1	inactive

## Input Assay result, entry CCC(C)[C@H](NC(=O)NC(=O)NC(=O)CI)C(=O)OC (stereo not given in full) — outcome?
## Output active

## Input Assay result, entry COc1ncc(-c2ccc3nc(N)n(-c4ccccc4C(F)(F)F)c(=O)c3c2)cc1S(=O)(=O)Nc1ccc(F)cc1F — outcome?
## Output inactive

====

Test system: SW-620 colon
measurement_description: NCI-60 one-dose screen, 48 h
condition_parameters: 10 µM unless noted
About 83,000 compounds went through this panel and 20% of them were active in at least one assay; those are over-represented in the sample as a whole. Calls of active or inactive are those of the source. How the source made its calls: active means growth percent below 10; inactive means the rest.
Outcome (select one): y (active), n (inactive)

Illustrative cases are given below, each with its answer.
compound	classification
Cc1ccc2c(c1)/C(=N\N=C/c1cn(C(C)C)c3ccccc13)C(=O)N2	n
O=C(NCc1ccc(Cn2c(=O)sn(-c3ccccc3)c2=O)cc1)OCc1ccc2c(Br)cc(Br)c(O)c2n1	y
Cn1cc(-c2nnc(-c3cn(C)c4ncc(Br)cc34)s2)c2cc(Br)ccc21	n
COc1cccc(-c2[nH]c(=S)ncc2C(=O)c2ccccc2)c1	n
N#C/C(C(=O)c1ccccc1)=C1/C(=O)Nc2ccccc21	n
CN(C)CCOc1ccc(/C(=C(/CCCl)c2ccccc2)c2ccccc2)cc1	n
CC1(C)C(=NO)C(C)(C)C1=NO	n
C=C(CN=[N+]=[N-])[C@@H]1CC[C@]2(C)[C@H](CC[C@@H]3[C@H]4[C@H]5OC(=O)[C@@]4(CCC5(C)C)CC[C@]32C)[C@@]1(C)CCC#N	n

## Input Assay result, entry CCOC(=O)C1=C(C(=O)c2ccc(Br)cc2)C(c2ccc(Br)cc2)NC(=S)N1 (stereo not drawn) — outcome?
## Output n

## Input Assay result, entry CCN=Cc1c(O)c(O)c(C(C)C)c2cc(C)c(-c3c(C)cc4c(C(C)C)c(O)c(O)c(C=NCC)c4c3O)c(O)c12 — outcome?
## Output n

## Input Assay result, entry COc1cc2c(cc1OCCCCCOc1ccc(-n3c(C)nc4ccccc4c3=O)cc1)N=C[C@@H]1CCCN1C2=O — outcome?
## Output y

## Input Assay result, entry Nc1nc(Nc2ccccc2)c2ncn(Cc3cc4c(cc3Br)OCO4)c2n1 — outcome?
## Output n

## Input Assay result, entry COc1ccc2c(c1)c(-c1noc(-c3cn(C)c4ncc(F)cc34)n1)cn2C — outcome?
## Output n

## Input Assay result, entry O=[N+]([O-])c1ccc(O)c(-c2nc3ccccc3s2)c1 — outcome?
## Output n

## Input Assay result, entry CCc1ccc(NC(=O)N[C@@H](Cc2cc(F)cc(F)c2)C(=O)N[C@@H]2C(=O)N3C[C@H](O)C[C@H]3C(=O)N3CCOC[C@H]3C(=O)N[C@@H](C)C(=O)N3C[C@H](C)C[C@H]3C(=O)O[C@H]2C)cc1 — outcome?
## Output n

====

Tested on: HCT-15 colon
measurement_description: NCI-60 one-dose screen, 48 h
condition_parameters: 10 µM unless noted
Compounds without any hit were thinned out: in the full panel of roughly 83,000, 20% have a hit. Activity calls are given as the source filed them. How the source made its calls: active means growth percent below 10; inactive means the rest.
Outcome (select one): active, inactive

compound	classification
Cc1cc(N2CCCCCC2)nc(N2CCN(CC(=O)Nc3ccc4c(ccn4Cc4ccccc4)c3)CC2)n1	inactive
C=C(C)[C@@H]1CC[C@]2(COC(=O)c3ccccc3C(=O)O)CC[C@]3(C)[C@H](CC[C@@H]4[C@@]5(C)CC[C@H](OC(=O)c6ccccc6C(=O)O)C(C)(C)[C@@H]5CC[C@]43C)[C@@H]12	inactive

## Input Assay result, entry CCCN1CC(c2ccc(OC)c(OC)c2)=C(c2cn(C(=O)OCC)c3ccccc23)C1=O — outcome?
## Output inactive

## Input Assay result, entry O=C(N/N=C\c1cc(Cl)ccc1O)N/N=C/c1cc(Cl)ccc1O — outcome?
## Output inactive

## Input Assay result, entry CCN(CC)CCCOc1ccc2c(c1)O/C(=C\c1cccc(OC)c1)C2=O — outcome?
## Output inactive

## Input Assay result, entry CC(C)CCSc1nc(N)nc2nc[nH]c12 — outcome?
## Output inactive

## Input Assay result, entry Nc1nnc(CSc2nnc3n(Cc4ccccc4)c(=O)c4c5c(sc4n23)CCCC5)s1 — outcome?
## Output inactive

## Input Assay result, entry CCCCCC1CCCCN1C(=O)OCCCC (stereo unspecified) — outcome?
## Output inactive

====

Readings of growth for the listed compounds
Test system: NCI-H460 lung
measurement_description: NCI-60 one-dose screen, 48 h (100 = growth as untreated, 0 = no growth, -100 = all killed)
condition_parameters: 10 µM unless noted
The panel holds about 83,000 compounds, 20% with a hit somewhere; the sample as a whole holds those more often. Active and inactive are the calls of the source. Rule for the calls: active = growth percent below 10; inactive = the rest.

Below, 3 compounds whose answers are already recorded.
>>> df
                                   compound  measured_attribute   endpoint_value
0  Cn1cc(-c2noc(-c3cn(C)c4ncc(F)cc34)n2)c2cc(Cl)ccc21              growth   2.39% (active)
1                    C=CCCCCCCCCC(=O)OC(C)C              growth  100% (inactive)
2  CN(C)CCOc1ccc(/C(=C(/CCCl)c2ccccc2)c2ccccc2)cc1              growth  -73.3% (active)

Could you now look at the following compound, please?
## Input In one line, give reported growth of the entry O=C(NCCCNC(=O)OCc1ccc2c(Br)cc(Br)c(O)c2n1)OCc1ccc2c(Br)cc(Br)c(O)c2n1 .
## Output 4.8% (active)

====

System: MDA-MB-435 melanoma
measurement_description: NCI-60 one-dose screen, 48 h (100 = growth as untreated, 0 = no growth, -100 = all killed)
condition_parameters: 10 µM unless noted
Procedure: Growth inhibition of the MDA-MB-435 human Melanoma tumor cell line is measured as a screen for anti-cancer activity. Cells are grown in 96 well plates and exposed to the test compound for 48 hours. Compounds are tested at a single concentration, which is 10^-5 M for most compounds. The reported endpoint is percent growth (GI% or GIPRCNT), where numbers from 0 - 100% represent growth inhibition, and numbers from -100% - 0 represent cell death. […]
This is part of a sample that, as a whole, favours compounds with a hit. Of some 83,000 tested, about 20% had one in any assay.
measured_attribute: growth (%)
Write the answer as a number in %, unit excluded.

Below, 3 compounds whose answers are already recorded.
compound	growth [%]
Nc1nc(Cl)c2ncn(Cc3cc4c(cc3I)OCO4)c2n1	34.6
CC[C@]1(O)CC2CN(CCc3c([nH]c4ccccc34)[C@@](C(=O)OC)(c3cc4c(cc3OC)N(C=O)[C@H]3[C@@](O)(C(=O)OC)[C@H](OC(C)=O)[C@]5(CC)C=CCN6CC[C@]43[C@@H]65)C2)C1 (some centres undefined)	-25.7
COc1ccc(/C=C/C(=C/c2c(O)[nH]c3cc(Br)ccc23)N=O)cc1	108

Could you now look at the following compound, please?
## Input In one line, give reported growth of the entry Cc1cccc(C[C@H](NC(=O)Nc2ccc(C)cc2F)C(=O)N[C@@H]2C(=O)N3C[C@H](O)C[C@H]3C(=O)N3CCN(C)C[C@H]3C(=O)N[C@@H](C)C(=O)N3C[C@H](C)C[C@H]3C(=O)O[C@H]2C)c1 .
## Output 21.8
